# tested system: mouse kappa opioid receptor (mKOR) (Mus musculus)
# Construct: Stimulation of Endogenous Mouse Kappa-Opioid Receptor in R1.G1 Cells; host or cells: R1.G1 mouse thymoma cells
# method summary: cell-based
# measurement parameters: read-out: mKOR Efficacy(%)
Square brackets hold non-standard residues; d marks the D form. Peptide text beside a SMILES is read from it. * marks the point of attachment. Homopiperazine(4-amidino) = N=C(N)N1CCCN(*)CC1; d(hArg) = N=C(N)NCCCC[C@@H](N)C(=O)O
# Emax values compiled below
Answers without a unit are incomplete; give the number and then its unit.

// below: answered molecules
{"molecule": "CC(C)C[C@@H](NC(=O)[C@@H](Cc1ccccc1)NC(=O)[C@H](N)Cc1ccccc1)C(=O)N[C@H](CCCN)C(=O)NC1CCN(CC(N)=O)CC1", "tested system": "mouse kappa opioid receptor (mKOR) (Mus musculus)", "Emax": "93%"}
{"molecule": "CC(C)C[C@@H](NC(=O)[C@@H](Cc1ccccc1)NC(=O)[C@H](N)Cc1ccccc1)C(=O)N[C@H](CCCCN)C(=O)N1CCN(c2ccccn2)CC1", "tested system": "mouse kappa opioid receptor (mKOR) (Mus musculus)", "Emax": "89%"}
{"molecule": "CC(C)C[C@@H](NC(=O)[C@@H](Cc1ccccc1)NC(=O)[C@H](N)Cc1ccccc1)C(=O)N[C@H](CCCNC(C)C)C(=O)N1CCC(N)(C(=O)O)CC1", "tested system": "mouse kappa opioid receptor (mKOR) (Mus musculus)", "Emax": "92%"}

Form field: reported Emax of CC(C)C[C@@H](NC(=O)[C@@H](Cc1ccccc1)NC(=O)[C@H](N)Cc1ccccc1)C(=O)N[C@H](CCCCNC(=N)N)C(=O)N1CCCN(C(=N)N)CC1 [Compound (16)] (H-[dF][dF][dL][d(hArg)]-{Homopiperazine(4-amidino)}) 105%

For the molecule "CC(C)C[C@@H](NC(=O)[C@@H](Cc1ccccc1)NC(=O)[C@H](N)Cc1ccccc1)C(=O)N[C@H](CCCCN)C(=O)N1CCN(c2ncccn2)CC1" , what Emax is on record? 78%

Which Emax reading was recorded for the molecule "CC(C)C[C@@H](NC(=O)[C@@H](Cc1ccccc1)NC(=O)[C@H](N)Cc1ccccc1)C(=O)N[C@H](CCCCN)C(=O)N1CCC2(CCNC2=O)CC1" ? 82%

====

# method summary: Caco-2 (TC7 subclone) membrane permeability, apical-to-basolateral
# measurement parameters: human
quantity kind: Papp A→B at 60 min, 10 μM (×10⁻⁶ cm/s)
Field: numeric (×10⁻⁶ cm/s). Do not append units.

So what's the measured Papp A→B at 60 min, 10 μM for this one? CNC(=C[N+](=O)[O-])NCCSCc1ccc(CN(C)C)o1 [Ranitidine, ranitidine] 0.5

====

# tested system: human kappa opioid receptor (hKOR) (Homo sapiens, UniProt P41145)
# Construct: expressed in transfected cells; host or cells: HEK-293 cells, transient transfection with Fugene6
# Sequence (P41145 whole entry): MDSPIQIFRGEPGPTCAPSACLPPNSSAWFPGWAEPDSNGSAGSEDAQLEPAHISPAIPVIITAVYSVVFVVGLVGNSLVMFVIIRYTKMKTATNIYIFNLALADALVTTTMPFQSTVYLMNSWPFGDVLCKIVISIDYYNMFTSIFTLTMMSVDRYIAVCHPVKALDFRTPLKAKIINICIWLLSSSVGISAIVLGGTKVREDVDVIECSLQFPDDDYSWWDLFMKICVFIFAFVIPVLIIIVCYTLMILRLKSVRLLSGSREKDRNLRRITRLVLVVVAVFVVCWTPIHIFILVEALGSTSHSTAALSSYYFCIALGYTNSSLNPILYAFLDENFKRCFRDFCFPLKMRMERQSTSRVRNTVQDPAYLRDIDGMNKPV
# method summary: cell-based
# measurement parameters: HEK293, read-out: hKOR Efficacy(%)
quantity kind: Emax

{"structure string": "CC(C)C[C@@H](NC(=O)[C@@H](Cc1ccccc1)NC(=O)[C@H](N)Cc1ccccc1)C(=O)N[C@H](CCCN)C(=O)N1CCC(CCCC(=O)O)CC1", "Emax": "97%"}

Proceed to the following item.
Emax for "CNCCC[C@@H](NC(=O)[C@@H](CC(C)C)NC(=O)[C@@H](Cc1ccccc1)NC(=O)[C@H](N)Cc1ccccc1)C(=O)N1CCCN(C(=N)N)CC1" ? 101%

====

Item-by-item account of pEC50
# tested system: human kappa opioid receptor (hKOR) (Homo sapiens, UniProt P41145)
# method summary: cell-based
Square brackets hold non-standard residues; d marks the D form. Peptide text beside a SMILES is read from it. * marks the point of attachment. Homopiperazine(4-amidino) = N=C(N)N1CCCN(*)CC1; dAgb = N=C(N)NCC[C@@H](N)C(=O)O; Homopiperazinyl = C1CNCCN(*)C1; dAgp = N=C(N)NC[C@@H](N)C(=O)O
pEC50 is a log-scale quantity: -log10 of the concentration expressed in molar.

Use these answered entries as a reference point.
{"compound": "CC(C)C[C@@H](NC(=O)[C@@H](Cc1ccccc1)NC(=O)[C@H](N)Cc1ccccc1)C(=O)N[C@H](CNC(=N)N)C(=O)N1CCCNCC1 [Compound (20)] (H-[dF][dF][dL][dAgp]-Homopiperazinyl)", "tested system": "human kappa opioid receptor (hKOR) (Homo sapiens, UniProt P41145)", "pEC50": 9.41}
{"compound": "CC(C)C[C@@H](NC(=O)[C@@H](Cc1ccccc1)NC(=O)[C@H](N)Cc1ccccc1)C(=O)N[C@H](CCCN)C(=O)N1CCC(CC(N)C(=O)O)CC1 (stereo partly shown)", "tested system": "human kappa opioid receptor (hKOR) (Homo sapiens, UniProt P41145)", "pEC50": 9.89}
{"compound": "CCN1CCCN(C(=O)[C@@H](CCCN)NC(=O)[C@@H](CC(C)C)NC(=O)[C@@H](Cc2ccccc2)NC(=O)[C@H](N)Cc2ccccc2)CC1", "tested system": "human kappa opioid receptor (hKOR) (Homo sapiens, UniProt P41145)", "pEC50": 9.85}
{"compound": "CC(C)C[C@@H](NC(=O)[C@@H](Cc1ccccc1)NC(=O)[C@H](N)Cc1ccccc1)C(=O)N[C@H](CNC(=N)N)C(=O)N1CCCN(C(=N)N)CC1 [Compound (18)] (H-[dF][dF][dL][dAgp]-{Homopiperazine(4-amidino)})", "tested system": "human kappa opioid receptor (hKOR) (Homo sapiens, UniProt P41145)", "pEC50": 8.94}
{"compound": "CC(C)C[C@@H](NC(=O)[C@@H](Cc1ccccc1)NC(=O)[C@H](N)Cc1ccccc1)C(=O)N[C@H](CCCNC(C)C)C(=O)N1CCC(N)(C(=O)O)CC1", "tested system": "human kappa opioid receptor (hKOR) (Homo sapiens, UniProt P41145)", "pEC50": 9.92}
{"compound": "CC(C)C[C@@H](NC(=O)[C@@H](Cc1ccccc1)NC(=O)[C@H](N)Cc1ccccc1)C(=O)N[C@H](CCCN)C(=O)N1CCC(N2CCC[C@H]2C(=O)O)CC1", "tested system": "human kappa opioid receptor (hKOR) (Homo sapiens, UniProt P41145)", "pEC50": 9.77}
{"compound": "C/N=C(/N)N1CCCN(C(=O)[C@@H](CCCN)NC(=O)[C@@H](CC(C)C)NC(=O)[C@@H](Cc2ccccc2)NC(=O)[C@H](N)Cc2ccccc2)CC1", "tested system": "human kappa opioid receptor (hKOR) (Homo sapiens, UniProt P41145)", "pEC50": 9.74}
{"compound": "CNCCC[C@@H](NC(=O)[C@@H](CC(C)C)NC(=O)[C@@H](Cc1ccccc1)NC(=O)[C@H](N)Cc1ccccc1)C(=O)N1CCCNCC1", "tested system": "human kappa opioid receptor (hKOR) (Homo sapiens, UniProt P41145)", "pEC50": 10.05}

Quick one: pEC50 for CC(C)C[C@@H](NC(=O)[C@@H](Cc1ccccc1)NC(=O)[C@H](N)Cc1ccccc1)C(=O)N[C@H](CCNC(=N)N)C(=O)N1CCCN(C(=N)N)CC1 [Compound (23)] (H-[dF][dF][dL][dAgb]-{Homopiperazine(4-amidino)}) ? 9.77

// pEC50 lookup, key: "Cc1cnc(CNC(=O)[C@@H](CCCCN)NC(=O)[C@@H](CC(C)C)NC(=O)[C@@H](Cc2ccccc2)NC(=O)[C@H](N)Cc2ccccc2)cn1" 11.19

====

Emax: recorded values
# tested system: mouse kappa opioid receptor (mKOR) (Mus musculus, UniProt P33534)
# Construct: Stimulation of Endogenous Mouse Kappa-Opioid Receptor in R1.G1 Cells; host or cells: R1.G1 mouse thymoma cells
# Sequence (P33534 whole entry): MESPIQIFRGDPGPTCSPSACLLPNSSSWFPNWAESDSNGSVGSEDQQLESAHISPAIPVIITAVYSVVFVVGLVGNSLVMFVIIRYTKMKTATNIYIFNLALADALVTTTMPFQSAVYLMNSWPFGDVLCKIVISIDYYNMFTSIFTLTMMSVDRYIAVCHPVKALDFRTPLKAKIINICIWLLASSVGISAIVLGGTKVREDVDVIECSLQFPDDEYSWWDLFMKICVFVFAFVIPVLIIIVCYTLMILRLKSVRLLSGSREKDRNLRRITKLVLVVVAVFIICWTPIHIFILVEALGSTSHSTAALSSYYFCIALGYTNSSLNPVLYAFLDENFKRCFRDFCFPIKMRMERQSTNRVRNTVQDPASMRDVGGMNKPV
# method summary: cell-based
# measurement parameters: read-out: mKOR Efficacy(%)
Square brackets hold non-standard residues; d marks the D form. Side chains are listed from the residue outwards. Peptide text beside a SMILES is read from it. * marks the point of attachment. Homopiperazinyl = C1CNCCN(*)C1; dOrn = NCCC[C@@H](N)C(=O)O
Give the number; % is assumed, so skip it.

Need Emax, item CC(C)C[C@@H](NC(=O)[C@@H](Cc1ccccc1)NC(=O)[C@H](N)Cc1ccccc1)C(=O)N[C@H](CCCNC(=N)N)C(=O)N1CCCNCC1 [Compound (7)] (H-[dF][dF][dL][dR]-Homopiperazinyl) 98

Given the compound "CC(C)C[C@@H](NC(=O)[C@@H](Cc1ccccc1)NC(=O)[C@H](N)Cc1ccccc1)C(=O)N[C@H](CCCN)C(=O)N1CCCNCC1" , what is its reported Emax? 100

So what's the measured Emax for this one? CC(C)C[C@@H](NC(=O)[C@@H](Cc1ccccc1)NC(=O)[C@H](N)Cc1ccccc1)C(=O)N[C@H](CCCN)C(=O)NCCCC[C@H](NC(=O)[C@@H](CCCN)NC(=O)[C@@H](CC(C)C)NC(=O)[C@@H](Cc1ccccc1)NC(=O)[C@H](N)Cc1ccccc1)C(N)=O [Compound (80)] (H-[dF][dF][dL][dOrn]K([dOrn-dL-dF-dF])-NH2) 91

Consider the compound shown here: "CC(C)C[C@@H](NC(=O)[C@@H](Cc1ccccc1)NC(=O)[C@H](N)Cc1ccccc1)C(=O)N[C@H](CCCCN)C(=O)N1CCC(N)(C(=O)O)CC1" What is its recorded Emax? 96

Item under review: "CC(C)C[C@@H](NC(=O)[C@@H](Cc1ccccc1)NC(=O)[C@H](N)Cc1ccccc1)C(=O)N[C@H](CCCCN)C(=O)NCC1OCCO1" . Reported Emax? 85

Values from patent US7713937B2
